SUBJECT OF TEST: T1, human serum albumin (human, UniProt P02768 25-609)
T1 construct: Negative control of the ELISA; also called HSA
PROTOCOL DESCRIPTION: ELISA, negative control HSA
QUANTITY KIND: ELISA HSA (RLU)
# output: bare number, implied unit RLU

Worked examples follow.
>>> value("ISOP193HR9P1F8 (designed binder, not shown: small tags and cut ends) LPAPKNLVVSRVTEDSARLSWTAPDAAFDSFDIYYYELRLGGEAIVLTVPGSERSYDLTGLKPGTEYLVTIYGVKVCYYSTPLSAIFTT")
6080
>>> value("ISOP193AR9P1A6 (designed binder, not shown: small tags and cut ends) LPAPKNLVVSRVTEDSARLSWKFGEVAFDSFLIQYQESEKVGEAIVLTVPGSERSYDLTGLKPGTEYTVSIYGVGRHYTVYDSNPLSAIFTT")
480
>>> value("ISOP193GR9P1A7 (designed binder, not shown: small tags and cut ends) LPAPKNLVVSRVTEDSARLSWTAPDAAFDSFAIFYHEFANPGEAIDLPVPGSERSYDLTGLKPGTEYDVRIYGVKGGTASIPLDAEFTT")
480

// next entry
Form field ELISA HSA (RLU), entry ISOP193AR9P1G11 (designed binder, not shown: small tags and cut ends) LPAPKNLVVSRVTEDSARLSWTNEQITKYGFDSFLIQYQESEKVGEAIVLTVPGSERSYDLTGLKPGTEYTVSIYGVGRHYTVYDSNPLSAIFTT : 960

These data points were gathered from patent US20220259289A1.
